# assay_target: Tyrosinase (Agaricus bisporus)
# Sequence (O42713 whole entry): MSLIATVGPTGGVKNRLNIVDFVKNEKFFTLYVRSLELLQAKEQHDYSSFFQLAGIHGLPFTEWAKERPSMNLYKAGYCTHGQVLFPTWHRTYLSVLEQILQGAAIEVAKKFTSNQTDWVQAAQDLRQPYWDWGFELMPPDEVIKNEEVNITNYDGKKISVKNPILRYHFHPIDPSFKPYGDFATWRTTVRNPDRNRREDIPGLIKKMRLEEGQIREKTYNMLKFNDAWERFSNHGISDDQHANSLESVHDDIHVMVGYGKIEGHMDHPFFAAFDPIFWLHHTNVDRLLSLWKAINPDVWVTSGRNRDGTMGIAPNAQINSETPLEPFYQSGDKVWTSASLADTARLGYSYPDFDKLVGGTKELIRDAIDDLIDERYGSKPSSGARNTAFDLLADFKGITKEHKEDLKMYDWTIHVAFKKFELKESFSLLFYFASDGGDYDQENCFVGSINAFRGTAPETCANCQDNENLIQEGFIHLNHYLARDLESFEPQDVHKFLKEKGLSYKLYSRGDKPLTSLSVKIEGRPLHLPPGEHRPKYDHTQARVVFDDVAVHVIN
observed_property: IC50 (µM)

C/C(=N/NC(N)=S)c1cccs1    0.14
COc1ccc(C(C)=O)cc1    2000
COc1ccc(/C=C/C(=O)O)cc1    410
C/C(=N/NC(N)=S)c1ccc(F)cc1    0.17
O=c1cccccc1O    0.4
COc1ccc(C/C(C)=N\NC(N)=S)cc1    0.42
C/C(=N/NC(N)=S)c1ccccc1    0.34
NC(=S)N/N=C(\c1ccccc1)C(O)c1ccccc1 (stereo not given)    55.5

P. COc1ccc(/C(C)=N\NC(N)=S)cc1
Q. C/C(CCc1ccc(O)cc1)=N/NC(N)=S
-- ask Response body: label of entry with the larger IC50; valid values P , Q . Select an item and report its label.
-- reply Q
(Q: 0.54 µM, P: 0.11 µM)

====

# assay_target: Tyrosinase (Agaricus bisporus, UniProt O42713)
# Sequence (O42713 whole entry): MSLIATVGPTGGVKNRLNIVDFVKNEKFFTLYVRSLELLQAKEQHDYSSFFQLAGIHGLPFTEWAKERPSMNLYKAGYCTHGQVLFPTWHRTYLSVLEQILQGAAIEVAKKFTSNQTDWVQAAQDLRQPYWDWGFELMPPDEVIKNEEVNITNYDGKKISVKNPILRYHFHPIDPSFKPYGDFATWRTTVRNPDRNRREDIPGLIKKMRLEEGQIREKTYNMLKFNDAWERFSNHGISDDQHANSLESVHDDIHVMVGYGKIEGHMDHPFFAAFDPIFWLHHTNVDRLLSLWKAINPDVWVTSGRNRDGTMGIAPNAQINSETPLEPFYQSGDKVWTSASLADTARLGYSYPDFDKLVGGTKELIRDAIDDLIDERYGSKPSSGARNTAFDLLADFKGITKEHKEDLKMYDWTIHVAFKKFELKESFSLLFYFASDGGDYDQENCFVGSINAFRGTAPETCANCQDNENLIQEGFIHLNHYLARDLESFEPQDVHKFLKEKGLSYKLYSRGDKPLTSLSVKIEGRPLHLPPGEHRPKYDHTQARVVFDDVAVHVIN
pIC50: −log10 of the molar value.
observed_property: pIC50

NNC(N)=S [THIOSEMICARBAZIDE]    2.70

1. C/C(=N/NC(N)=S)c1ccc(O)cc1
2. C/C(=N/NC(N)=S)c1cccnc1
3. CC(=O)c1ccccc1
-- ask # rank by pIC50, ascending (min first) List labels; respect the requested ordering.
-- reply 3, 2, 1
